In this section we review reported growth inhibition values for a set of compounds.
- assay text: NCI Yeast Anticancer Drug Screen. Data for the bub3 strain (AID 167)
- stated conditions: S. cerevisiae bub3 mutant strain, at 50.0 µM, active compounds read high
Compounds without any hit were thinned out: in the full panel of roughly 79,000, 15% have a hit.
Answer with a number only, understood to be in %.

Example entries and their recorded answers appear below.
| compound | growth inhibition [%] |
| --- | --- |
| CC(C(=O)O)C(C)(O)C(C)(C)C (configuration not stated) | 12.2 |
| C=C1C(=O)O[C@H]2[C@H]1CC(=O)/C(C)=C/CC[C@@]1(C)O[C@@H]21 | 25.6 |
| CCOC(=O)N/N=C(/OCC)c1ccccc1 | 13.8 |
| c1ccc(-c2ccccc2-c2ccccc2)cc1 | -8.15 |
| C[C@@H]1S[C@H](c2c(F)cccc2Cl)n2c1nc1ccccc12 | 68.2 |
| C[N+](C)(C)C=Nc1cccc2c1CCCC2 | 6.05 |

Kindly review the next compound as well.
Identify measured growth inhibition associated with "Cn1cnnc1Sc1c([N+](=O)[O-])ncn1C"
15.6

---

- assay text: NCI Yeast Anticancer Drug Screen. Data for the bub3 strain (AID 167)
- stated conditions: S. cerevisiae bub3 mutant strain, at 50.0 µM, active compounds read high
About 79,000 compounds went through this panel and 15% of them were active in at least one assay; those are over-represented in the sample as a whole. *1 amine or outer side, *2 acyl side, *3 side chain or, on linkers, in order; H or OH if unused. Where a SMILES comes first, the peptide text is derived from it. Bridges are numbered along the chain shown (N, C = ends). Roman numbers before positions name the chains, in order. [ ]: non-standard residue; d: D form. The star is where a group is joined. Actinocin(9to1) = Cc1c2oc3c(C)ccc(C(=O)[*:1])c3nc-2c(C(=O)[*:2])c(N)c1=O; X13 = O=C1CC(C(=O)[*:2])N([*:1])C1; NMeV = CN[CH](C(=O)O)C(C)C; Cbz = O=C(OCc1ccccc1)*; Sar = CNCC(=O)O
recorded endpoint: growth inhibition (%)
# number only, unit % dropped from output

| compound | unit symbol | growth inhibition |
| --- | --- | --- |
| CCCCC(CC)COC(=O)COc1ccc(C(C)c2ccc(OCC(=O)OCC(CC)CCCC)cc2)cc1 (centres undefined) | % | 3.2 |
| CC(=O)N1CCC23C(=O)CC4C(=CCOC5CC(=O)N(c6ccccc62)C3C54)C1 (centres undefined) | % | 3.55 |

Indicate the recorded growth inhibition value for this compound: "O=C(Nc1nnc(C(F)(F)F)s1)c1c(F)cccc1F"
37

Annotate the compound CCOC(=O)C1SC(=S)N(c2ccccc2)C1N (centres undefined) with its measured growth inhibition.
-4.45

Fill in reported growth inhibition for this entry: O=S1(=O)C2CCC(C2)C1Cl (centres undefined)
-1.05

Look up and report measured growth inhibition for this entry: CCCC(C)OC(=O)Nc1cccc(O)c1 (centres undefined)
-21.5

Please report growth inhibition for the following compound: "COc1ccc2oc3c(C)cc4c(OC)nnc(OC)c4c3c2c1"
-5.35

Could you please provide reported growth inhibition for "COC(=O)C(=O)c1c(C(=O)OC)nc2nnc(N)n2c1-c1ccc(O)c(OC)c1" ? Thanks!
16.5

Name the recorded growth inhibition of the compound listed here: "c1scc2c1COCCOCCOCCOCc1cscc1COCCOCCOCCOC2"
-30.4

Give growth inhibition for the following compound: COc1cc([C@@H]2OCC3C(c4ccc5c(c4)OCO5)OCC32)cc(OC)c1OC (some centres undefined)
43.4

Supply measured growth inhibition of "COc1cc2c(oc(=O)c3c4occc4cc(OC)c23)c2cccc(OCc3ccccc3)c12" in your reply.
-20.9

In one line, give reported growth inhibition of the entry Cc1c2oc3c(C)ccc(C(=O)NC4C(=O)NC(C(C)C)C(=O)N5CC(=O)CC5C(=O)N(C)CC(=O)N(C)C(C(C)C)C(=O)OC4C)c3nc-2c(C(=O)NC2C(=O)NC(C(C)C)C(=O)N3CC(=O)CC3C(=O)N(C)CC(=O)N(C)C(C(C)C)C(=O)OC2C)c(N)c1=O (centres undefined) (I: TV[X13][Sar][NMeV] / II: TV[X13][Sar][NMeV]; ester I:1-I:C, II:1-II:C; linker I:N-II:N via Actinocin(9to1); configuration not given here) .
-3.25

Give reported growth inhibition value for CC1CC(C2=CC=CCS2)=Nc2ccccc2S1 (centres undefined)
5.3

Annotate the compound CC(C)CC(NC(=O)C(CO)NC(=O)OCc1ccccc1)C(=O)NC(Cc1ccc(O)cc1)C(N)=O (stereo not drawn) (Cbz-Ser-Leu-Tyr-NH2; configuration not given here) with its measured growth inhibition.
3.95

Indicate the recorded growth inhibition value for this compound: "Nc1nc(SCCCc2ccccc2)c2[nH]cnc2n1"
31.6

Indicate the recorded growth inhibition value for this compound: "Cc1ccc(-n2cc(-c3ccc(Cl)cc3)c3c(=N)n(N)cnc32)cc1"
16.8

Supply recorded growth inhibition for "c1ccc(-c2nnc(-c3ccc4ccccc4c3)o2)cc1" here.
13.4

Find the measured growth inhibition of "CC(Nc1cnccn1)Nc1cnccn1" and report it.
-5.2

Dear colleague, please send me the reported growth inhibition for C1=CC([P+](Cc2ccccc2)(c2ccccc2)c2ccccc2)CC1 (centres undefined) when you can.
52.6

---

- assay text: NCI Yeast Anticancer Drug Screen. Data for the cln2 rad14 strain (AID 165);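 note: 0% = growth equal to vehicle treated cultures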
- stated conditions: S. cerevisiae cln2 rad14 strain, at 50.0 µM, active compounds read high
This is part of a sample that, as a whole, favours compounds with a hit. Of some 79,000 tested, about 15% had one in any assay.
Answer condition not met if growth inhibition is under -10%, and condition met if it is -10% or more.

Use the examples below as a reference point.
| compound | class assignment |
| --- | --- |
| CC(C)SCC(N)C(=O)O (configuration not stated) | condition not met |
| CCC1(CC)C(=O)C(CC)(CC)C1=O | condition met |
| CCOC(=O)Cc1cc(=O)oc2cc(O)ccc12 | condition met |
| c1ccc(-c2cc3nncc(-c4ccccc4)n3n2)cc1 | condition met |

Quick check, growth inhibition >= -10%? CC1COC(c2cc3c(cc2Cl)OCO3)O1 (configuration not stated)
condition not met

I'd appreciate it if you could say whether "O=C(Cc1ccccc1)N/N=C\Cc1ccccc1" has growth inhibition at least equal to -10%.
condition not met

Is reported growth inhibition greater than or equal to -10% here: "CCC(=O)c1ccc2c(ccc3ccccc32)c1O"
condition not met

Answer whether growth inhibition of CC(C)C(N)C(=O)NC(C(=O)O)C(C)C (configuration not stated) is greater than or equal to -10%.
condition not met

Hi, just wondering whether "CC(C)(C)NC(=O)NCc1ccc(Cl)cc1" shows growth inhibition of -10% or higher.
condition not met

hey, is growth inhibition for this one >= -10%? "Cc1cccc(C)c1NC(=O)Nc1cccc(O)c1"
condition met

Does the compound "Clc1cc(Cl)cc(C=NC23CC4CC(CC(C4)C2)C3)c1" have recorded growth inhibition that is -10% or more?
condition not met

Assess whether reported growth inhibition for "O=C(Cc1ccccc1CCO)NCCc1ccccc1" sits at -10% or higher.
condition met

Would you say CCOC(=O)CC(C)C(C(=O)OCC)C(=O)OCC (configuration not stated) shows growth inhibition at minimum -10%?
condition met

Evaluate "CC12CC3CC(C)(C1)CC(N=[N+]=[N-])(C3)C2" : growth inhibition at minimum -10%?
condition met

---

- assay text: NCI Yeast Anticancer Drug Screen. Data for the rad50 strain (AID 155);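 note: 0% = growth of vehicle-only cultures of the same strain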
- stated conditions: S. cerevisiae rad50 strain growth inhibition; at 50.0 µM; active compounds read high
About 79,000 compounds went through this panel and 15% of them were active in at least one assay; those are over-represented in the sample as a whole. Activity calls are given as the source filed them. No stated cut-off is given here; in the data, active means growth inhibition above about 70%; inactive means the rest.
Listing: growth inhibition of selected compounds

| compound | growth inhibition |
| --- | --- |
| O=C(O)CCSc1ccccc1[N+](=O)[O-] | 31.6% (inactive) |
| CSc1nc(NC2OC(CO)C(O)C(O)C2O)c(I)c(=O)n1C (stereo not given) | 3.15% (inactive) |
| Cc1cc(C)n(-c2nc(-n3nc(C)cc3C)nc(-n3nc(C)cc3C)n2)n1 | -34.2% (inactive) |
| O=C(COc1ccc(Cl)cc1Cl)Nc1ccc2ccccc2c1 | 49.4% (inactive) |

Turning now to a further compound:
Tell me growth inhibition reported for CC(=O)NC(CCCNC(=O)N(C)N=O)C(=O)NCc1ccccc1 (stereo not given)
-35% (inactive)

---

Entries and their growth inhibition values follow.
- assay text: NCI Yeast Anticancer Drug Screen. Data for the mec2-1 strain (AID 157)
- stated conditions: S. cerevisiae mec2-1 strain, at 50.0 µM, active compounds read high
- Procedure: Growth inhibition of yeast strains with defined genetic alterations is measured as a screen for potential anti-cancer activity. Selected strains with alterations in DNA damage repair or cell cycle control were exposed to compounds and growth inhibition was measured relative to vehicle treated controls. The strain used in this assay is mec2-1
The panel holds about 79,000 compounds, 15% with a hit somewhere; the sample as a whole holds those more often.
Kindly answer with a numeric value in %, unit omitted.

For the molecule COc1nc(NC2OCC(O)C(O)C2O)c(NC2OCC(O)C(O)C2O)c(=O)n1C (stereo not drawn) , report growth inhibition.
-1.7

Note growth inhibition for the molecule shown: "O=C(CN=C(CN(c1ccccc1)c1ccccc1)Oc1c(Cl)cc(Cl)cc1Cl)n1cnc2ccccc21"
-9

Answer with the recorded growth inhibition of "COc1cc(C=O)ccc1OC(=O)Nc1ccc(F)c([N+](=O)[O-])c1" only.
30.4

Given the molecule "NC(=O)c1n[nH]n(-c2ccccc2)c1=O" , write its reported growth inhibition.
-5.35

Indicate its recorded growth inhibition; the molecule in question is "COc1cc2ccnc(CCCc3nccc4cc(OC)c(OC)cc34)c2cc1OC"
-4.05

Item "CC(=O)Nc1ccc(O)c(CN2CCN(c3ccccc3)CC2)c1" : provide growth inhibition
16

Identify measured growth inhibition corresponding to "CCC(=O)[CH-]C(=O)CC.CCC(=O)[CH-]C(=O)CC.[Cu+2]"
-1.9

Write down growth inhibition measured for item "O=[N+]([O-])c1cccc(S/N=C/c2ccccc2)c1"
98.4
